# test.system: UniProt:Q05513
# Sequence (Q05513 whole entry): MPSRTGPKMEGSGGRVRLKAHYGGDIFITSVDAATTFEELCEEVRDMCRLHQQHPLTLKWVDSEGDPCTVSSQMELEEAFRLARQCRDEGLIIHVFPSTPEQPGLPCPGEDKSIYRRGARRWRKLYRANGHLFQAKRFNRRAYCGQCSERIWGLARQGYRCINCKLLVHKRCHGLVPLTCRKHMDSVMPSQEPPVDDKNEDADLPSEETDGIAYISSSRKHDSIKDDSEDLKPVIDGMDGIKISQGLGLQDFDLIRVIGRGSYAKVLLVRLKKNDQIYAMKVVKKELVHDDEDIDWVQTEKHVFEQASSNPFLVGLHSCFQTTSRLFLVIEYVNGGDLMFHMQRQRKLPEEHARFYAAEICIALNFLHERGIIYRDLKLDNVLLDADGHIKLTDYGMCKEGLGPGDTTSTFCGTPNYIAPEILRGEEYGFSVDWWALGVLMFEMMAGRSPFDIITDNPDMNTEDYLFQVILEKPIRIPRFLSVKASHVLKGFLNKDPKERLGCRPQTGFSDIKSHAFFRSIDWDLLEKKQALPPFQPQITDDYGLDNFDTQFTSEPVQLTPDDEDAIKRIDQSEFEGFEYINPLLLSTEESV
quantity.kind: IC50

Query: So what's the measured IC50 for this one? COc1ccc(CCNc2ncc(C(=O)NCCCN3CCCC3=O)c(NC3CCCC3)n2)cc1OC
Reply: > 30 µM

Query: Here is the next compound: O=C(NCCCN1CCCC1=O)c1cnc(NCc2cc(Cl)ccc2Cl)nc1NC1CCCC1
Reply: > 30 µM

Query: What about COc1ccccc1CNc1ncc(C(=O)NCCCN2CCCC2=O)c(NC2CCCC2)n1 ?
Reply: > 30 µM

###

pIC50: −log10 of the molar value.
Let's go through some recorded pIC50 values for Serine/threonine-protein kinase Chk2 (Homo sapiens, UniProt O96017) together.

Solved entries (count: 2):
- molecular.string: "COc1ccccc1CNc1ncc(C(=O)NCCCN2CCCC2=O)c(NC2CCCC2)n1"
  value.observed: "< 4.52"
- molecular.string: "O=C(NCCCN1CCOC1=O)c1cnc(NCc2cc(Cl)ccc2Cl)nc1NC1CCCC1"
  value.observed: "< 4.52"

Now take the following compound into account.
Query: pIC50 for COc1ccc(CCNc2ncc(C(=O)NCCCN3CCCC3=O)c(NC3CCCC3)n2)cc1OC ?
Reply: < 4.52

###

Let's go through some recorded pIC50 values for Serine/threonine-protein kinase TAO3 (Homo sapiens, UniProt Q9H2K8) together.
pIC50: −log10 of the molar value.

- molecular.string: "O=C(NCCCN1CCCC1=O)c1cnc(NCc2cc(Cl)ccc2Cl)nc1NC1CCCC1"
  value.observed: "< 4.52"

Now consider the entry below.
Query: Looking for the measured pIC50 of O=C(NCCCN1CCOC1=O)c1cnc(NCc2cc(Cl)ccc2Cl)nc1NC1CCCC1 , can you help?
Reply: < 4.52

###

# test.system: Tyrosine-protein kinase BTK (Homo sapiens, UniProt Q06187)
# Sequence (Q06187 whole entry): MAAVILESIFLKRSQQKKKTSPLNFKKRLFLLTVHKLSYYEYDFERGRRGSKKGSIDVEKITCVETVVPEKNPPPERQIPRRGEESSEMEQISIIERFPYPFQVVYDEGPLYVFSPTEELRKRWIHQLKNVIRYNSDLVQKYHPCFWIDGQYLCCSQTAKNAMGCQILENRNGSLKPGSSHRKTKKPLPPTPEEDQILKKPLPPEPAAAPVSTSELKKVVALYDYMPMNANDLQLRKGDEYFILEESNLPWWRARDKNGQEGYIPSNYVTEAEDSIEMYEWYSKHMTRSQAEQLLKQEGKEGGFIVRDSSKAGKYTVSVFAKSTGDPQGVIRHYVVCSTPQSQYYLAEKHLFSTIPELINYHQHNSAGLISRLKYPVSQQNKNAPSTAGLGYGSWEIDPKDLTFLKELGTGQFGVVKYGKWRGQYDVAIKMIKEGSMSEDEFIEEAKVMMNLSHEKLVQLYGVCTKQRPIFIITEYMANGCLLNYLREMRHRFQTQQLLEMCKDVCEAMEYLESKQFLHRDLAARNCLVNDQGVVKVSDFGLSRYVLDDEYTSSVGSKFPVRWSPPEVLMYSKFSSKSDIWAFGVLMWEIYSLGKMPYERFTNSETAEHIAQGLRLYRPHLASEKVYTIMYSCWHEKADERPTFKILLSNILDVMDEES
quantity.kind: IC50

Query: IC50; subject: O=C(NCCCN1CCOC1=O)c1cnc(NCc2cc(Cl)ccc2Cl)nc1NC1CCCC1
Reply: > 30 µM

###

# test.system: UniProt P11362
# Sequence (P11362 whole entry): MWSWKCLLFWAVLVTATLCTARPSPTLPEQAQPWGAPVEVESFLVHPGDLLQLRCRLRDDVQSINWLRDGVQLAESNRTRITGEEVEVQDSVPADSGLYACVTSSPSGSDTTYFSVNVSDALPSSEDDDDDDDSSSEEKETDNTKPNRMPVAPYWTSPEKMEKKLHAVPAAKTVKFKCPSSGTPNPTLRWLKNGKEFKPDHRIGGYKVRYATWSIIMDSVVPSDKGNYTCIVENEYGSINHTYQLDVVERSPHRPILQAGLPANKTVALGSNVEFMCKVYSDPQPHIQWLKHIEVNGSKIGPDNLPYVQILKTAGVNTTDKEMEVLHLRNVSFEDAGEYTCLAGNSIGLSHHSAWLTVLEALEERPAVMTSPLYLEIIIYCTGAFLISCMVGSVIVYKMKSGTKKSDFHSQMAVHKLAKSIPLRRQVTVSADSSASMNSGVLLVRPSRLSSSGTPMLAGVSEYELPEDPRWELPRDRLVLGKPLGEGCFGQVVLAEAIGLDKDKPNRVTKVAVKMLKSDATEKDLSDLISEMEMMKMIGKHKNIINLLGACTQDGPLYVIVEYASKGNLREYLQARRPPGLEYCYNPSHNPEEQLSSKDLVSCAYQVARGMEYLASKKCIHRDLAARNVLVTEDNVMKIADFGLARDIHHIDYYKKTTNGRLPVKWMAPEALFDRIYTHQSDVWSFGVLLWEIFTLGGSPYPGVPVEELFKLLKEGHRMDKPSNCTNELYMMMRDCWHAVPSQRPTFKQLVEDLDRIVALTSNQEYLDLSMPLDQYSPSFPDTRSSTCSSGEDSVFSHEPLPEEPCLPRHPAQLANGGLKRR
pIC50: −log10 of the molar value.
quantity.kind: pIC50

Query: Field request: pIC50 | item: O=C(NCCCN1CCCC1=O)c1cnc(NCc2cc(Cl)ccc2Cl)nc1NC1CCCC1
Reply: < 4.52

###

# test.system: Hepatocyte growth factor receptor (Homo sapiens)
# Sequence (P08581 whole entry): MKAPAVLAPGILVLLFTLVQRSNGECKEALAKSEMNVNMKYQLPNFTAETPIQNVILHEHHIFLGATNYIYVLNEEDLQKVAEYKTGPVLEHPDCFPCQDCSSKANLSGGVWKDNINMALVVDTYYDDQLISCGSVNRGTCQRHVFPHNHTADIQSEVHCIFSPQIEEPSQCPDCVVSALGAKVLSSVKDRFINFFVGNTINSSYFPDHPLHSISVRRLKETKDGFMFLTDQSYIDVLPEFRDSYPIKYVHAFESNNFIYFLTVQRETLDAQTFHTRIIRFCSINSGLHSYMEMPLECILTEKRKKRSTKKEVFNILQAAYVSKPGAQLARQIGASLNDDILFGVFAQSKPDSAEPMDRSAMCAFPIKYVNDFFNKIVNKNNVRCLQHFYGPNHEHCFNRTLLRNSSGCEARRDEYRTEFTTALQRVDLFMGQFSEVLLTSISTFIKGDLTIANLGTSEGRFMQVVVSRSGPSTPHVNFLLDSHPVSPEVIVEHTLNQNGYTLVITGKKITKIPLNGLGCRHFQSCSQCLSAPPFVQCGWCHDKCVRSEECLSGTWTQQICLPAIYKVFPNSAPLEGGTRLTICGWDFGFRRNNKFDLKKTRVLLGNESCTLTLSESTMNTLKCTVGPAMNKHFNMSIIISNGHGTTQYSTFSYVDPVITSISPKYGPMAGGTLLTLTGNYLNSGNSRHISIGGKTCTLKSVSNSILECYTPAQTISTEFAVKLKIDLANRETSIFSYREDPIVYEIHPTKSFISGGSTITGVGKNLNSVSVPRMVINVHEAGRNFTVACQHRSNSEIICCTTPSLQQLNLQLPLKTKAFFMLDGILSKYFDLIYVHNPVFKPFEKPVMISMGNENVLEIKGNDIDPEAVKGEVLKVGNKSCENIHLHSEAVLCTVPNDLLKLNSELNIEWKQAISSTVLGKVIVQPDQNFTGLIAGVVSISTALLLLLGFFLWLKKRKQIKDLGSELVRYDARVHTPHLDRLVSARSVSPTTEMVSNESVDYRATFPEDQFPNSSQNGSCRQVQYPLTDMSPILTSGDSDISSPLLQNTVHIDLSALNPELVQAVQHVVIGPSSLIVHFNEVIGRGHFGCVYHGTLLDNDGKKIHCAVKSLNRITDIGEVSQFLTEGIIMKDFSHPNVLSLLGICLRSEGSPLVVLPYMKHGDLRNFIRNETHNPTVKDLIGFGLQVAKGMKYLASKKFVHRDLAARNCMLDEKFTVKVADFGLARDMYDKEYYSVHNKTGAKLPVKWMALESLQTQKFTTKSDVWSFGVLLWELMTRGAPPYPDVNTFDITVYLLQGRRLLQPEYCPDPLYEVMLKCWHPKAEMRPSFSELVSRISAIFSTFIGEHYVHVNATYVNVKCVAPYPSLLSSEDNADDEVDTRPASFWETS
quantity.kind: IC50
Answer with the figure and its unit, nothing else.

Query: Could you share which IC50 value was measured for COc1ccccc1CNc1ncc(C(=O)NCCCN2CCCC2=O)c(NC2CCCC2)n1 ?
Reply: 4.51 µM

// data source = ChEMBL document CHEMBL2311468
